Target: PARP7 (Homo sapiens)
Sequence (Q7Z3E1 1-657): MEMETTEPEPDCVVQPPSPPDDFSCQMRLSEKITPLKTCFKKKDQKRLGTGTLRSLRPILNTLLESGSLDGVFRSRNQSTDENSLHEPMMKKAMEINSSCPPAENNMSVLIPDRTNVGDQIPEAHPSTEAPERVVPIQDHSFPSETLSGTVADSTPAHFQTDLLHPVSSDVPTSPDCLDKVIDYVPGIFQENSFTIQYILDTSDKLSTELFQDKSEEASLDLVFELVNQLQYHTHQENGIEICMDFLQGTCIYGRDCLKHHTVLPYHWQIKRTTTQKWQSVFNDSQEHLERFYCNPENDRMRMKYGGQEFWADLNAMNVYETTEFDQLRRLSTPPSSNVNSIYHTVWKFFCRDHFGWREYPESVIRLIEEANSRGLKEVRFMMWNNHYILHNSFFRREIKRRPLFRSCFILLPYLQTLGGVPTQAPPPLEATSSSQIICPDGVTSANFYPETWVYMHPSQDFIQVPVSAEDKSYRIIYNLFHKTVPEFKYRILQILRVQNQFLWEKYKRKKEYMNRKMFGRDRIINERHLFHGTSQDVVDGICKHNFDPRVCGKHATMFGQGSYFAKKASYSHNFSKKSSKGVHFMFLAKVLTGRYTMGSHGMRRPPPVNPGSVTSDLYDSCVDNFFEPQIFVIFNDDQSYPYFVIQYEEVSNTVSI

compound: NC(=O)c1cc(C(F)(F)F)cnc1N1CCN(C(=O)[C@H]2C[C@H](NCc3cc(C(F)(F)F)c(=O)[nH]n3)C2)CC1 [Embodiment 62]
IC50: < 0.01 µM
--
compound: O=C(C1CN(Cc2cc(C(F)(F)F)c(=O)[nH]n2)C1)N1CCN(c2ccc(C(F)(F)F)cn2)CC1 [Embodiment 32]
IC50: 0.01 to 0.1 µM
--
compound: COc1cc(N2CCN(C(=O)C3CN(Cc4cc(C(F)(F)F)c(=O)[nH]n4)C3)CC2)ncc1C(F)(F)F [Embodiment 57]
IC50: < 0.01 µM

The measured values listed here are drawn from patent US20260200942A1.
